Source: patent US20230399319A1

molecular target: NLRP3 inflammasome (Homo sapiens (Human)); test: Evaluation of NLRP3 inflammasome inhibitory activity (inhibition of IL-1β production in THP1-Null cells, LPS/Nigericin)
Sequence (Q96P20 whole entry): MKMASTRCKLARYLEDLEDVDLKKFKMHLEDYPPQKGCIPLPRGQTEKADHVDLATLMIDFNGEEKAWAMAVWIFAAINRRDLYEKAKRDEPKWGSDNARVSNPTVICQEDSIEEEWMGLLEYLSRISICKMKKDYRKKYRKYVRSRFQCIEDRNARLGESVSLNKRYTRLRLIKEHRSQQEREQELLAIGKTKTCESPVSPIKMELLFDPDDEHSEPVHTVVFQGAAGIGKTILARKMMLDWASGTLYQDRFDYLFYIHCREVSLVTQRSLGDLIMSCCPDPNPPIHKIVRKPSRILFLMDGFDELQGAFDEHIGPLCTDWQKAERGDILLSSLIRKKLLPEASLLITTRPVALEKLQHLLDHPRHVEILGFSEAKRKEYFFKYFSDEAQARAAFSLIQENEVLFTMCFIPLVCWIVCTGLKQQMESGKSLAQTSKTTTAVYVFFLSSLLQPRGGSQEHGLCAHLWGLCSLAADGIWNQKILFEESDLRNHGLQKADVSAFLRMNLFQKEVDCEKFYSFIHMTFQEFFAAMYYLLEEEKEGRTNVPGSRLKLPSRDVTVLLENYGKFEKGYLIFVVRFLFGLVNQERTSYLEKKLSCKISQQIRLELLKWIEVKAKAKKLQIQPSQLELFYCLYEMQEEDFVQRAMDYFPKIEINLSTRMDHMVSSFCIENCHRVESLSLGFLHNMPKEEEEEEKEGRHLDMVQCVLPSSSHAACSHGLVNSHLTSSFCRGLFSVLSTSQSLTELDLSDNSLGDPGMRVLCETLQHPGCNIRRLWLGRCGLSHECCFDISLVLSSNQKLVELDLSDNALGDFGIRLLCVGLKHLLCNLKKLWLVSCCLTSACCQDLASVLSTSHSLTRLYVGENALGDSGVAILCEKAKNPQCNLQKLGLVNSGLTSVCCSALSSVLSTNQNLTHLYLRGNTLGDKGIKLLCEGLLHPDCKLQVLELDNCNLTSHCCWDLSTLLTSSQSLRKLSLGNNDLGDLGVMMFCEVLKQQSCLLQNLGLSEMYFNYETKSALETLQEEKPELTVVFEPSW
// values below are reported IC50
quantity.name: IC50 (nM)

{"compound": "Cc1ccc(C(F)(F)F)cc1Nc1nc(C(=O)NS(=O)(=O)N2CCOCC(C)C2)co1 (racemic) [Example 2-092]", "value.relation.sign": "=", "measured.result": 22}
{"compound": "CCC1CN(S(=O)(=O)NC(=O)c2cnc(Nc3c4c(cc5c3CCC5)CCC4)o2)CCO1 (racemic) [Example 16]", "value.relation.sign": "<", "measured.result": 30}
{"compound": "CCC1COCCN1S(=O)(=O)NC(=O)c1cnc(Nc2c3c(cc4c2CCC4)CCC3)o1 (racemic) [Example 11]", "value.relation.sign": "=", "measured.result": 72}
{"compound": "O=C(NS(=O)(=O)N1CCC(O)C1)c1coc(Nc2c3c(c(F)c4c2CCC4)CCC3)n1 (racemic) [Example 52]", "value.relation.sign": "=", "measured.result": 32}
{"compound": "COCC1CN(S(=O)(=O)NC(=O)c2coc(Nc3c(C(C)C)ccc4c3CCC4)n2)CCO1 (racemic) [Example 2-120]", "value.relation.sign": "=", "measured.result": 160}
{"compound": "Cc1ccc(C(C)C)cc1Nc1nc(C(=O)NS(=O)(=O)N2CCOCC2C)co1 (racemic) [Example 2-081]", "value.relation.sign": "=", "measured.result": 94}
{"compound": "CC(C)C1COCCN1S(=O)(=O)NC(=O)c1cnc(Nc2c3c(cc4c2CCC4)CCC3)o1 (racemic) [Example 10]", "value.relation.sign": "=", "measured.result": 210}
{"compound": "COC1COCCN(S(=O)(=O)NC(=O)c2coc(Nc3cc(C(C)(F)F)ccc3C)n2)C1 (racemic) [Example 2-185]", "value.relation.sign": "=", "measured.result": 38}
{"compound": "COC1CCCN(S(=O)(=O)NC(=O)c2coc(Nc3cc(C(F)(F)F)ccc3C)n2)C1 (racemic) [Example 2-159]", "value.relation.sign": "=", "measured.result": 61}
{"compound": "CCN(C)C(=O)C1CCCN(S(=O)(=O)NC(=O)c2coc(Nc3cc(C(F)(F)F)ccc3C)n2)CC1 (racemic) [Example 2-246]", "value.relation.sign": "=", "measured.result": 67}
{"compound": "COCC1CN(S(=O)(=O)NC(=O)c2coc(Nc3c4c(c(Cl)c5c3CCC5)CCC4)n2)CCO1 (racemic) [Example 38]", "value.relation.sign": "=", "measured.result": 73}
{"compound": "Cc1ccc(C(F)(F)F)cc1Nc1nc(C(=O)NS(=O)(=O)N2CCC(O)C2)co1 (racemic) [Example 29]", "value.relation.sign": "=", "measured.result": 120}
{"compound": "COC1COCCN(S(=O)(=O)NC(=O)c2coc(Nc3cc(C)ccc3C(C)C)n2)C1 (racemic) [Example 2-310]", "value.relation.sign": "=", "measured.result": 98}
{"compound": "O=C(NS(=O)(=O)N1CCCC1C(F)(F)F)c1coc(Nc2c3c(c(Cl)c4c2CCC4)CCC3)n1 (racemic) [Example 40]", "value.relation.sign": "=", "measured.result": 930}
{"compound": "Cc1ccc(C(F)(F)F)cc1Nc1nc(C(=O)NS(=O)(=O)N2CCCOC(C)C2)co1 (racemic) [Example 2-230]", "value.relation.sign": "=", "measured.result": 89}
